All figures here come from PubChem BioAssay (NCI).

Tested on: NCI-H226 lung
experimental.details: NCI-60 one-dose screen, 48 h
test.conditions: 10 µM unless noted
The panel holds about 83,000 compounds, 20% with a hit somewhere; the sample as a whole holds those more often. Activity calls are given as the source filed them. The calls were made as follows: active = growth percent below 10; inactive = the rest.
Could you please pick one outcome from this set? 1.0 = active, 0.0 = inactive

Worked examples, 3 compounds total:
# compound, target.of.assay, category
data = [
    ("Nc1nc(-c2cccc([N+](=O)[O-])c2)c(N=Nc2ccccc2[N+](=O)[O-])s1", "NCI-H226 lung", 1.0),
    ("NC(=O)c1c(NC(=O)c2cccc(C(F)(F)F)c2F)sc2c1CCC(=O)C2", "NCI-H226 lung", 0.0),
    ("COc1ccc(/C=C/C(=O)c2nnn(-c3ccc(C(=O)O)cc3)c2C)cc1OC", "NCI-H226 lung", 0.0),
]

**Q:** Hi, do you know how COc1ccc(-c2nc(SCCC(C)C)nc(N/N=C\c3ccc(O)cc3)c2C#N)cc1 came out in this test?
**A:** 0.0

**Q:** Please do the same for CS(=O)c1nccc(-c2c(-c3ccc(F)c(OCCc4ccccc4)c3)nc3sccn23)n1 (centres undefined) as well.
**A:** 0.0

**Q:** Another compound to check: CN1CCN(Cc2ccc(NC(=O)c3cncc(C#Cc4cnc5ccc(NC6CCOCC6)nn45)c3)cc2C(F)(F)F)CC1
**A:** 1.0

**Q:** What about this compound? COc1cccc(/C=C/C(=O)c2ccc(NC(=O)COc3cccc4cccnc34)cc2)c1
**A:** 0.0

**Q:** Query COc1cc([C@H]2OC[C@H]3[C@@H]2CO[C@@H]3c2ccc(O)c(OC)c2)ccc1O next
**A:** 0.0

**Q:** Queued: O=C(COc1ccc(/C=C2\SC(=O)NC2=O)cc1)Nc1ccc(C(=O)/C=C/c2cc3ccccc3nc2Cl)cc1
**A:** 0.0
